Provenance of the data: paper PMC12342889

The reader will find reported pKd values listed item by item below.
- tested on: MSI-1 RRM2-M1 (Homo sapiens, UniProt O43347 104-200, E180N)
- Sequence (O43347 104-200 E180N): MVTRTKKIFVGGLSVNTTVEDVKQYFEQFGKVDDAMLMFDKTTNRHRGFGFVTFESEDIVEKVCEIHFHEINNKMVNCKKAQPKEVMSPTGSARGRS
- protocol details: SPR; NMR: 50 mM Tris-HCl, 140 mM NaCl, 1 mM EDTA, 1 mM protease inhibitors, pH 7.2 (RRM1: pH 7.5), 298 K; fluorescence quenching: 50 mM Tris pH 7.2, 140 mM NaCl, 1 mM EDTA; SPR: biotinylated RNA immobilised, buffer not in the material
- condition summary: protein: recombinant; label: biotin for SPR; unlabelled for NMR; single strand
pKd: −log10 of the molar value.
recorded metric: pKd

| binder | measured |
| --- | --- |
| UUGUUAGUUACCCCUU (ssRNA) [oligo-L2] | 7.45 |
| UUGUUAGUUAUUAGUU (ssRNA) [oligo-L3] | 7.13 |
| UUGAUAGUUAGCAGGU (ssRNA) [oligo-L3.2] | 7.30 |
